- system_name: recombinant human ALK5 (TGF-βR1) protein (Homo sapiens)
- Sequence (P36897 34-503): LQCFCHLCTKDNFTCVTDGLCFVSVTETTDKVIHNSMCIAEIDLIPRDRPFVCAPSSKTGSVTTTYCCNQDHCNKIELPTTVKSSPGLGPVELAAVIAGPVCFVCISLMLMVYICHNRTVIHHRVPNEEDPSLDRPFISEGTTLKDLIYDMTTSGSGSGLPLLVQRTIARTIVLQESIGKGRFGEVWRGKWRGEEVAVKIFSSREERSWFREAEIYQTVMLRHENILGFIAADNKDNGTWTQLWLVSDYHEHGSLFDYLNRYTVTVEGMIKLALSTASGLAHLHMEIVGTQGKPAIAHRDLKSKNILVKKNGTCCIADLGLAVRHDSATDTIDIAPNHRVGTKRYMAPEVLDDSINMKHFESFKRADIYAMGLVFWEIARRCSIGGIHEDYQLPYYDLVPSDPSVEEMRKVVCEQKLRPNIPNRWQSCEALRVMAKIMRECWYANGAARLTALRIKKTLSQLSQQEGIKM
- procedure_details: Biochemical ALK5 (TGF-βR1) assay to measure pKi (LANCE Ultra ULight kinase assay)
- settings: apparent pKi, converted from pIC50 using the Cheng-Prusoff equation

- compound: "CN(CCN1CCNCC1)c1cnc2ccc(-c3c[nH]nc3-c3cc(Cl)c(F)cc3F)nc2c1"
  Ki: "0.398 to 3.16 nM"
- compound: "COCc1cccc(-c2n[nH]cc2-c2ccc3ncc(N4CCC(N(C)C)C4)cc3n2)c1 (racemic)"
  Ki: "3.98 to 31.6 nM"
- compound: "COCC1CN(c2cnc3ccc(-c4c[nH]nc4-c4cc(Cl)ccc4F)nc3c2)CCN1C (racemic)"
  Ki: "0.398 to 3.16 nM"
- compound: "Fc1ccc(Cl)cc1-c1n[nH]cc1-c1ccc2ncc(N3CC(N4CCCCC4)C3)cc2n1"
  Ki: "0.0398 to 0.316 nM"
- compound: "Fc1ccc(Cl)cc1-c1n[nH]cc1-c1ccc2ncc(Nc3ccc(N4CCNCC4)cn3)cc2n1"
  Ki: "0.0398 to 0.316 nM"
- compound: "OCCN1CCN(c2cnc3ccc(-c4c[nH]nc4-c4cc(Cl)ccc4F)nc3c2)CC1"
  Ki: "0.0398 to 0.316 nM"
- compound: "CNCCn1cc(-c2cnc3ccc(-c4c[nH]nc4-c4cccc(COC)c4)nc3c2)nn1"
  Ki: "0.398 to 3.16 nM"

Recorded values, source patent US11730720B2.
